Data origin, for the record: the RNAGym collection of RNA variant scans (doi:10.1126/science.aae0568)

B1: tRNA (parent)
chain: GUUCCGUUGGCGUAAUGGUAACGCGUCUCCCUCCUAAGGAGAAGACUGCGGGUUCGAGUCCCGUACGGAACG

- Variants of: B1
- test.description: yeast fitness relative to wild type (ratio to wild type); higher = fitter; tRNA-Arg(CCU), competitive growth, 37 C, YPD
Variants at the floor of the assay were thinned out.
# reported yeast fitness; entries follow

| mutation.key | yeast fitness |
| --- | --- |
| C4U G12C C49A U64C | ≤ 0.5 |
| A14U U19C A65U | ≤ 0.5 |
| C27U C29A G38C A57G C61U | ≤ 0.5 |
| A15G C30G C49G A65U | ≤ 0.5 |
| A21G G44A A69C | ≤ 0.5 |
| C4G A15C U26G G41C C60G | 0.631 |

Item G17A C34A A57U has what recorded yeast fitness?
≤ 0.5

Item U7G C62G has what recorded yeast fitness?
0.603

Item A15U A43G G56C C60U has what recorded yeast fitness?
≤ 0.5

Item C30A A37U A40U C49U has what recorded yeast fitness?
≤ 0.5

Item C5A U7A A21G C61G C66G has what recorded yeast fitness?
≤ 0.5

Item C5U G18C C22U G50A has what recorded yeast fitness?
0.572

Item A45U G50U G68C A69U has what recorded yeast fitness?
≤ 0.5

Item U2C C11U G56C C62U has what recorded yeast fitness?
≤ 0.5

Item G10A A15G C55U has what recorded yeast fitness?
0.591

Item G12A U28G has what recorded yeast fitness?
0.607
